Origin of the recorded values: the nanobody polyreactivity screen of Harvey et al. (2022)

Test Details: yeast display, Sf9 membrane polyspecificity reagent, FACS + sequencing; frameworks hold sequencing errors
Parameter: polyreactivity (PSR sort gate)

{"Biopolymer Sequence": "QVQLQESGGLEQAGVSLRLSCAACGNIFYDTYICWYRQGKERELVASIDHAGSTNYADSVIGRFTISRDNAKNTSYLQRNSLKPDDTAVYYCNAEYTKTGALLIPYTYYYAEDYWGQGTQVTVSS", "Parameter": "polyreactivity (PSR sort gate)", "Reported Result": "low polyreactivity"}
{"Biopolymer Sequence": "QVQLVESGGGIVQAGGSLRLSCAASGSTFVDNAMGWYRQAPGKERELVAAITTSVGSTYYADSVKGRFTISRDNAKNTVYLQMNSLKPEDTAVYYCAATVFSTYPYGYGSTFVRDDYWGQGTQVTVSS", "Parameter": "polyreactivity (PSR sort gate)", "Reported Result": "low polyreactivity"}
{"Biopolymer Sequence": "QVQLVESGGGLVQAGGSLRLSCAACGRIFSYNAMGWYRQAPGKERELVAAIRWRGGSTYYADSVKGRFTISRDNAKNTVYLQMNRLKPEDTAVYYCNALRYYHYDYWGQGTQVTVSS", "Parameter": "polyreactivity (PSR sort gate)", "Reported Result": "high polyreactivity"}
{"Biopolymer Sequence": "QVQLVESGGGLVQAGGSLRLSCAASGFIFRYYAMGWYRQAPGKERELVARIRSSGGSTYYADSVKGRFTISRDNAKKTVYLKMNSLKPEDTAVYYCDTVSYITYYGGYGYWGQGTQVTVSS", "Parameter": "polyreactivity (PSR sort gate)", "Reported Result": "high polyreactivity"}
{"Biopolymer Sequence": "QDQLVESGGGLVQAGGSLRLSCAASGRTFEGNAMGWYRQAPGKERELVAAITSGGRTNYADSVKGRFTISRDNAKNTVYLQMNSLKPEDTEVYYCANVYRSIGPNVSRYGLSYYYWGQGTQVTVSS", "Parameter": "polyreactivity (PSR sort gate)", "Reported Result": "low polyreactivity"}
{"Biopolymer Sequence": "QVHLVESGGGLVQAGGSLRLSCAASGRTFRKYAMGWYRQAPGKERELVAAISSSGGRTYYADSVKGRFTISRDNAKNTVYLQMNSLKPEDTAVYYCAAKQGNRNSYKYDYWGQGTQVTVSS", "Parameter": "polyreactivity (PSR sort gate)", "Reported Result": "high polyreactivity"}
{"Biopolymer Sequence": "QVQLVESGGGLVQAGGSLRLSCAASGFIFRFNAMGWYRQAPGKERELVAGITWSGGSTYYADSVKGRFTISRDNAKNTVYLQMNSLKPEDTAVYYCAADNPYLGRKFDYWGQGTQVTVSS", "Parameter": "polyreactivity (PSR sort gate)", "Reported Result": "high polyreactivity"}
{"Biopolymer Sequence": "QVQLVESGGGLVQAGGSLRLSCAASGFTIDAYAMGWYRQAPGKDRELVAAISGSGGSTYYADSVKGRFTISRDNAKNTVYLQMNSLKPEDTALYYCAKDPGPYDYDYWGQGTQVTVSS", "Parameter": "polyreactivity (PSR sort gate)", "Reported Result": "low polyreactivity"}
{"Biopolymer Sequence": "QVQLVESGGGLVQAGGSLRLSCAASGSIFIGYAMGWYRQAPGKERELVAAITSAGSTYADSVKGRFTISRDNAKNTGYLQRNSVKPEDTAVYYCAARFFLVTLDYWGQGTQVTVSS", "Parameter": "polyreactivity (PSR sort gate)", "Reported Result": "low polyreactivity"}
{"Biopolymer Sequence": "QVQLVESGGGLVQAGGSLRLSCAASGRTFYNAMGWYRPAPGKERELVAAISGSGGSTYYADSVKGRFTISRDNAKNTVYLKMNSLKPEDTAVYYCAARSVWWQVSQGNYWGQGTQVTVSS", "Parameter": "polyreactivity (PSR sort gate)", "Reported Result": "low polyreactivity"}
{"Biopolymer Sequence": "QVQLVESGGGLVQAGGSLRLSCAASGSTFTRNAMGWYRQAPGKERELVARISRSGGSTYYADSVKGRFTISRDNAKNSVYLQMNSLKPEDTAVYDCNKDWYPRYPYVKGERDYWGEGTQVTVSS", "Parameter": "polyreactivity (PSR sort gate)", "Reported Result": "high polyreactivity"}
{"Biopolymer Sequence": "QVQLVESGGGLDQAGGSLLLSCPASGRTFGTYAMGLYRQAPGKERELVASITSGDSTNYADSVKGRFTISRDNAKYTVYLQMNSQKPEDTAVYYCNASGYVMVTPPKLSFNYEYWGQGTQVTVSS", "Parameter": "polyreactivity (PSR sort gate)", "Reported Result": "low polyreactivity"}
{"Biopolymer Sequence": "QVQLVESGGGLVQAGGSLRLSCAASGSTFGKYAMGWYRQAPGKERELVASISRSGASTYYADSVKGRFTISRDNAKNTVYVQMNSQKPEDTAVYYCNKARNPEGYWRYDYWGQGTQVTVSS", "Parameter": "polyreactivity (PSR sort gate)", "Reported Result": "high polyreactivity"}
{"Biopolymer Sequence": "QVQLVESGGGLVQAGGSLRLSCAASGRTFKYYAMGWYRQAPGKERELVAGITYRDGRTYYADSVKGRFTISRDNAKNTVYLQMNSLKPEDTEVYYCAAERYSSPYWGMDYWGQGTQVTVSS", "Parameter": "polyreactivity (PSR sort gate)", "Reported Result": "high polyreactivity"}
{"Biopolymer Sequence": "QVQLVESGGGLVQAGGSLRLSCAASGRTFDGYAMGWYRQAPGKERELVASINGGGSTNYADSVKGRFTISRDNAKNTVYLQMNSLKPEDTAVYYCAAESKGTWHYLYTSPHYYWGQGTQVTVSS", "Parameter": "polyreactivity (PSR sort gate)", "Reported Result": "low polyreactivity"}
{"Biopolymer Sequence": "QVQLVESGGGLVQAGGSLRLSCAASGRTSTGYAMGWYRPAPGKERELVAGIDKIGGRTYYADSVKGRFTISRDNEKNTVYLQMNSLKPEDTAVYYCNRVPRRSIRYDYWGQGTKVTVSS", "Parameter": "polyreactivity (PSR sort gate)", "Reported Result": "high polyreactivity"}
{"Biopolymer Sequence": "QVLLVESGGGLVQAGGSLRLSFAASGITFYGYDMGWYRQATGKERELVAAITSDGITNYADSVKGRFTISRDNAKNTVYLQMNSLKPEDTAVYYCAADVSFYRRYEWYYYWGQGTQVTVSS", "Parameter": "polyreactivity (PSR sort gate)", "Reported Result": "low polyreactivity"}
{"Biopolymer Sequence": "QVQLVESGAGLVQAGGSLRLSCAASGLTFIYNAMVWYRQAPGKERELVAAISGNGGDTYYADSVKGRFTLSRDNAKNTVYLQMNSLKPEDTAVYYCAADYAYTPITCDEYWGQGTKVTVSS", "Parameter": "polyreactivity (PSR sort gate)", "Reported Result": "low polyreactivity"}
{"Biopolymer Sequence": "QVQLVESGGGLVQAGGSLRLSCAASGRIFTTYVMGWYRQAPGKERELVAAISARGSTYYADSVKGRFTISRDNAKNTVYLEMNSLKPEDTAVYYCAAGHRLPVYYGYPRATYNYWGQGTQVTVSS", "Parameter": "polyreactivity (PSR sort gate)", "Reported Result": "low polyreactivity"}
{"Biopolymer Sequence": "QVQLVESGGGLVQAGGSLRLSCAASGLIFYSYTMGWYRQAPGKERELVAVISRSGTSTYYADSVKGRFTISRDNAKNTVYLQMNSLKPEDTAVYYCAALTRSGPYAYEYWGQGTQVTVSS", "Parameter": "polyreactivity (PSR sort gate)", "Reported Result": "high polyreactivity"}
{"Biopolymer Sequence": "QVHLVDSGGGLVQAGGSLRLSCPASGLTFPSNSMGCYRQAPGKERELVAAISKRGGRTYYADSVKGRFTISRDNAKNTVYLQMNSLKPEDTAVYYCATLYAYPGTVQYAGYNYWGQGTQVTVSS", "Parameter": "polyreactivity (PSR sort gate)", "Reported Result": "high polyreactivity"}
